- study target: Serum samples collected at week 16 from patients immunized with UBI AD vaccine (UB-311)
- protocol notes: comp. ELISA, serum P208
observation type: IC50-based peak height
Reply with just the number.

Consider the binder shown here: SGYEVHHQKL [Aβ8-17 or APP 770 (S679-L688)] What is its recorded IC50-based peak height?
0

Recorded IC50-based peak height of EISEVKMDAE [Aβ-7-3 or APP 770 (E665-E674)] , please.
0

Quick one: IC50-based peak height of HHQKLVFFAE [Aβ13-22 or APP 770 (H684-E693)] ?
0

Find the recorded IC50-based peak height belonging to EVHHQKLVFF [Aβ11-20 or APP 770 (E682-F691)] and report it.
0
